Values compiled from patent US20250382344A1.

# system.tested: T1, human neuropeptide Y2 receptor (human, UniProt P49146 1-381)
# T1 sequence (looked up): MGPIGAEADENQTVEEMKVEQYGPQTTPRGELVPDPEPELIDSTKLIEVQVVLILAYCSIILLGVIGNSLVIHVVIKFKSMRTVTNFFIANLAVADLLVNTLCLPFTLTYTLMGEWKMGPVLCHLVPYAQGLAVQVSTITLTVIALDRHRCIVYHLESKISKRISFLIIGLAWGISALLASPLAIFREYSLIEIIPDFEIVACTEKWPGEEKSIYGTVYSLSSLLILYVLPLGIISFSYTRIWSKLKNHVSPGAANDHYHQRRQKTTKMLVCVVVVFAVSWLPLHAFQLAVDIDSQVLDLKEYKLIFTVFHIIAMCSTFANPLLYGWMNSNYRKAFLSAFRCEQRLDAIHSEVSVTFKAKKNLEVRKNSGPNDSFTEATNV
# test.summary: cell-based or functional assay
*1 amine or outer side, *2 acyl side, *3 side chain or, on linkers, in order; H or OH if unused. Where no end group is shown, it is not given here. Side-chain parts run from the residue outwards. [ ]: non-standard residue; d: D form. The star is where a group is joined. C20 diacid = O=C(O)CCCCCCCCCCCCCCCCCCC(=O)*; γGlu = O=C(O)[C@H](CCC(=O)[*:2])N[*:1]; TRX = not defined here; Aib = CC(C)(N)C(=O)O

binder: YXEGTFTSDYSEXLEKQAQXAFVRHLINKXTRQRY (Aib at 2, 13, 20, 30; Lys29 epsilon-amino: C18DA-gGlu-gGlu-gGlu-gGlu-gGlu-gGlu-eLys; C-terminal amide) [Compound 112]
EC50, CreLuc reporter, 100% hP / nM: 27.9

binder: YXEATFTSDYSIXLEKQAQXAFVRHLINKXTRQRY (Aib at 2, 13, 20, 30; Lys29 epsilon-amino: C18DA-gGlu-gGlu-gGlu-gGlu-gGlu-gGlu-eLys; C-terminal amide) [Compound 93]
EC50, CreLuc reporter, 100% hP / nM: 24.8

binder: Y[Aib]EGTFTSDYSI[Aib]LEKQAQ[Aib]AFVRHLINK([γGlu-γGlu-γGlu-γGlu-γGlu-γGlu-TRX-C20 diacid])[Aib]TRQRY-NH2 (reading uncertain) [Compound 133]
EC50, CreLuc reporter, 100% hP / nM: 246
